- tested target: Voltage-gated L-type calcium channel (Rattus norvegicus, UniProt P22002+Q02485+P27732)
- experimental details: Percentage decrease in blood pressure at a dose of 135 uM/kg for 12-18 hr in spontaneously hypertensive rats.
- Type: functional, tissue-based
metric: Decrease in blood pressure
Note: a bare number is incomplete; add the unit.

Ask: Please report the recorded Decrease in blood pressure for COc1ccc([C@@H]2Cc3ccccc3N(CCN(C)C)C(=O)[C@@H]2OC(C)=O)cc1 .
Result: 13%

Ask: Please report the recorded Decrease in blood pressure for CCCN(C)CCN1C(=O)[C@H](OC(C)=O)[C@H](c2ccc(OC)cc2)Cc2c1cccc2C(F)(F)F .
Result: 28%

---
Ask: Please report the recorded Decrease in blood pressure for C=CCN(C)CCN1C(=O)[C@H](OC(C)=O)[C@H](c2ccc(OC)cc2)Cc2c1cccc2C(F)(F)F .
Result: 25%

Ask: Please report the recorded Decrease in blood pressure for COc1ccc([C@@H]2Cc3c(cccc3C(F)(F)F)N(CC(C)N(C)C)C(=O)[C@@H]2C)cc1 (stereo in doubt; 15m) .
Result: 12%

====

- tested target: Voltage-gated L-type calcium channel (Rattus norvegicus, UniProt P22002+Q02485+P27732)
- experimental details: Percentage decrease in blood pressure at a dose of 135 uM/kg for 0-6 h in spontaneously hypertensive rats.
- Assay type: functional, tissue-based
metric: Decrease in blood pressure (%)
Numbers only; they are read as %.

Ask: Please report the recorded Decrease in blood pressure for CC[C@H]1C(=O)N(CCN(C)C)c2cccc(C(F)(F)F)c2C[C@H]1c1ccc(OC)cc1 .
Result: 21

Ask: Please report the recorded Decrease in blood pressure for COc1ccc([C@@H]2Cc3cc(C(F)(F)F)ccc3N(CCN(C)C)C(=O)[C@@H]2OC(C)=O)cc1 .
Result: 19

Ask: Please report the recorded Decrease in blood pressure for COc1ccc([C@@H]2Cc3cc(Oc4ccccc4)ccc3N(CCN(C)C)C(=O)[C@@H]2OC(C)=O)cc1 .
Result: 16

---
Ask: Please report the recorded Decrease in blood pressure for CNCCN1C(=O)[C@H](OC(C)=O)[C@H](c2ccc(OCOC)cc2)Cc2c1cccc2C(F)(F)F .
Result: 6

Ask: Please report the recorded Decrease in blood pressure for CCC[C@H]1C(=O)N(CCN(C)C)c2ccccc2C[C@H]1c1ccc(OC)cc1 .
Result: 10

Ask: Please report the recorded Decrease in blood pressure for CNC(=O)CN1C(=O)[C@H](OC(C)=O)[C@H](c2ccc(OC)cc2)Cc2c1cccc2C(F)(F)F .
Result: 13

Ask: Please report the recorded Decrease in blood pressure for COc1ccc([C@@H]2Cc3c(cccc3C(F)(F)F)N(CC[N+](C)(C)C)C(=O)[C@@H]2C)cc1.[I-] .
Result: 25

Ask: Please report the recorded Decrease in blood pressure for COc1ccc([C@@H]2Cc3c(cccc3C(F)(F)F)N(C(C)CN(C)C)C(=O)[C@@H]2C)cc1 (stereo in doubt; 15o) .
Result: 16

Ask: Please report the recorded Decrease in blood pressure for COc1ccc([C@@H]2Cc3c(OC)cccc3N(CCN(C)C)C(=O)[C@@H]2C)cc1 .
Result: 7

Ask: Please report the recorded Decrease in blood pressure for C=CC[C@H]1C(=O)N(CCN(C)C)c2ccccc2C[C@H]1c1ccc(OC)cc1 .
Result: 25

Ask: Please report the recorded Decrease in blood pressure for CCOC(=O)c1cccc2c1C[C@@H](c1ccc(OC)cc1)[C@@H](OC(C)=O)C(=O)N2CCN(C)C .
Result: 4

Ask: Please report the recorded Decrease in blood pressure for COc1ccc([C@@H]2Cc3c(cccc3C(F)(F)F)N(CCN(C)C)C(=O)[C@@H]2C)cc1 .
Result: 28

Ask: Please report the recorded Decrease in blood pressure for COc1ccc([C@@H]2Cc3cc(OCc4ccccc4)ccc3N(CCN(C)C)C(=O)[C@@H]2OC(C)=O)cc1 .
Result: 8

Ask: Please report the recorded Decrease in blood pressure for COc1ccc([C@@H]2Cc3c(cccc3C(F)(F)F)N(CCN(C)C)C(=O)[C@@H]2O)cc1 .
Result: 21

Ask: Please report the recorded Decrease in blood pressure for COc1ccc([C@@H]2Cc3c(cccc3C(F)(F)F)N(CC(C)N(C)C)C(=O)[C@@H]2C)cc1 (stereo in doubt; 15l) .
Result: 26

Ask: Please report the recorded Decrease in blood pressure for COc1ccc([C@@H]2Cc3c(Cl)cccc3N(CCN(C)C)C(=O)[C@@H]2OC(C)=O)cc1 .
Result: 9

Ask: Please report the recorded Decrease in blood pressure for COc1ccc([C@@H]2Cc3c(C)cccc3N(CCN(C)C)C(=O)[C@@H]2OC(C)=O)cc1 .
Result: 6
